- Tested target: AsPC-1 HiBiT-KRASG12D (Homo sapiens, UniProt P01116, G12D)
- Construct: insert the HiBiT tag onto the N-terminus of one or more of the endogenous KRAS alleles; endogenous in cells; host or cells: AsPC-1 (ATCC CRL-1682), CRISPR-Cas9 knock-in clone, one tagged allele
- Sequence (P01116 1-188 isoform P01116-2 G12D): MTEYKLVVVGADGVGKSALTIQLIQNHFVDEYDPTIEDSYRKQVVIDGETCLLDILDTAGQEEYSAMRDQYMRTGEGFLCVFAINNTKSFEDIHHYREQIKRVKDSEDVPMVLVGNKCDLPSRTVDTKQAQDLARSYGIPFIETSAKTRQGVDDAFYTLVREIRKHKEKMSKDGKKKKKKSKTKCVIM
- Method description: HiBiT degradation assay (G12D), AsPC-1 HiBiT-KRASG12D cells
- Format: cell-based
- Conditions: AsPC-1 HiBiT-KRASG12D cells, 24 hours treatment, HiBiT luminescence
Measured endpoint: DC50

Recorded DC50, per entry:
{"Molecule": "C#Cc1c(F)ccc2cccc(-c3ncc4c(N5CC6CCC(C5)N6)nc(OC[C@@]56CCCN5[C@@H](COC(=O)N5CCN(c7cc([C@H](C(=O)N8C[C@H](O)C[C@H]8C(=O)N[C@@H](C)c8ccc(-c9scnc9C)cc8)C(C)C)on7)CC5)CC6)nc4c3F)c12 (relative stereo) [Compound 334]", "DC50": "< 600 nM"}
{"Molecule": "CCc1cccc2cc(O)cc(-c3ncc4c(N5CCCCCC5)nc(OC[C@]56CCCN5[C@H](COC(=O)N5CCC(Oc7cc([C@H](C(=O)N8C[C@H](O)C[C@H]8C(=O)N[C@@H](C)c8ccc(-c9scnc9C)cc8)C(C)C)on7)CC5)CC6)nc4c3F)c12 [Compound 286]", "DC50": "< 600 nM"}
{"Molecule": "CCc1cccc2cc(O)cc(-c3ncc4c(N5CC6CCC(C5)N6)nc(OCCN5CCN(CC6CN(c7cc([C@@H](C(=O)N8C[C@H](O)C[C@H]8C(=O)N[C@@H](C)c8ccc(-c9scnc9C)cc8)C(C)C)on7)C6)CC5)nc4c3F)c12 [Compound 221]", "DC50": "> 3000 nM"}
{"Molecule": "CCc1cccc2cc(O)cc(-c3ncc4c(N5CC6CCC(C5)N6)nc(OC[C@]56CCCN5[C@H](COC(=O)N5CC(COc7cc([C@@H](C(=O)N8C[C@H](O)C[C@H]8C(=O)N[C@@H](C)c8ccc(-c9scnc9C)cc8)C(C)C)on7)C5)CC6)nc4c3F)c12 [Compound 122]", "DC50": "600 to 1000 nM"}
{"Molecule": "CCc1cccc2cc(O)cc(-c3ncc4c(N5CC6CCC(C5)N6)nc(OCCN5CCC(CN6CCN(c7cnc(C(=O)N[C@H](C(=O)N8C[C@H](O)C[C@H]8C(=O)N[C@@H](C)c8ccc(-c9scnc9C)cc8)C(C)(C)C)cn7)CC6)CC5)nc4c3F)c12 [Compound 293]", "DC50": "< 600 nM"}
{"Molecule": "CCc1cccc2cc(O)cc(-c3ncc4c(N5CC6CCC(C5)N6)nc(OC[C@@]56CCCN5[C@H](COCC(=O)N[C@H](C(=O)N5C[C@H](O)C[C@H]5C(=O)N[C@@H](C)c5ccc(-c7scnc7C)cc5)C(C)(C)C)CC6)nc4c3F)c12 [Compound 2]", "DC50": "< 600 nM"}

Need DC50 for each of these molecules.
1. CCc1cccc2cc(O)cc(-c3ncc4c(N5CC6CCC(C5)N6C=O)nc(OCCN5CCC(CC6CN(c7cc([C@@H](C(=O)N8C[C@H](O)C[C@H]8C(=O)N[C@@H](C)c8ccc(-c9scnc9C)cc8)C(C)C)on7)C6)CC5)nc4c3F)c12 [Compound 247]
2. CCc1cccc2cc(O)cc(-c3ncc4c(N5CC6CCC(C5)N6)nc(OC[C@]56CCCN5[C@@H](COc5cc(C(C(=O)N7C[C@H](O)C[C@H]7C(=O)N[C@@H](C)c7ccc(-c8scnc8C)cc7)C(C)C)on5)CC6)nc4c3F)c12 (some centres unmarked) [Compound 38]

(A)
1. > 3000 nM
2. < 600 nM
